Target: HDAC7 (Homo sapiens)
Sequence (Q8WUI4 1-952): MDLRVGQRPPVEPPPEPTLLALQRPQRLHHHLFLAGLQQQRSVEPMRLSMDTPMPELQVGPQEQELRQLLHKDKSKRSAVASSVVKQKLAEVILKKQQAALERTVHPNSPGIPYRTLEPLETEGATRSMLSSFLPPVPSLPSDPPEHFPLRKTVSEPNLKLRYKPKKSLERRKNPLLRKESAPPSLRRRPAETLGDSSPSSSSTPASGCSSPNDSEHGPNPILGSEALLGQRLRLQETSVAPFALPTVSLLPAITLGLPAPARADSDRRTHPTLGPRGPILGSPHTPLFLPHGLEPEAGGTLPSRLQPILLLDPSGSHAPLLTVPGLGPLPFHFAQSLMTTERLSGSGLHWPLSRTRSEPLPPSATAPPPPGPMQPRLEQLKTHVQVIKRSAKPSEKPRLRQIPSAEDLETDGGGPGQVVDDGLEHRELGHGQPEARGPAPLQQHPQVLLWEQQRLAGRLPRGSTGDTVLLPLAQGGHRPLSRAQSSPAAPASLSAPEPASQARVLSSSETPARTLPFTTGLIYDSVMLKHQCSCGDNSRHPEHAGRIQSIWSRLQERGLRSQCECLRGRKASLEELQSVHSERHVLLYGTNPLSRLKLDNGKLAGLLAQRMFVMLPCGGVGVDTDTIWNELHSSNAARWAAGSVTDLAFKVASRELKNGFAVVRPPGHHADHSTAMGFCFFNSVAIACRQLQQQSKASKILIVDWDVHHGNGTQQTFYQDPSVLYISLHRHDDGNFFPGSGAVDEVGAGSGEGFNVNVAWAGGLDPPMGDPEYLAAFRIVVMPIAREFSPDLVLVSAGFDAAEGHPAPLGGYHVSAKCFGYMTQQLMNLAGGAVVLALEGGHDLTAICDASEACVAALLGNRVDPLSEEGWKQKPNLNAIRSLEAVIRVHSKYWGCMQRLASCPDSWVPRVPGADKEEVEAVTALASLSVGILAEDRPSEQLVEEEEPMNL
Assay: HDAC biochemical activity measurement (fluorescent substrate deacetylation);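 as to IC50 HDAC7: fluorogenic deacetylation assay using acetyl-lysine substrate at 20 µM, enzyme and compound incubated 30 min at 37 °C, then developer added, fluorescence read at 360/460 nm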
Details: HDAC7; 37° C. 30 minutes
experimental readout: IC50 HDAC7

C/C=C1\NC(=O)c2cccc(n2)CCNC(=O)C[C@@H](/C=C/CCSC(C)=O)OC(=O)[C@H](C(C)C)NC1=O [Example 26]; no activity
C/C=C1\NC(=O)c2nc(ccc2SC)CCNC(=O)C[C@@H](/C=C/CCSC(C)=O)OC(=O)[C@H](C(C)C)NC1=O [Compound 223]; no activity
C/C=C1\NC(=O)c2cccc(n2)CNC(=O)C[C@@H](/C=C/CCSC(C)=O)OC(=O)[C@H](Cc2ccccc2)NC1=O [Compound 13]; no activity
C/C=C1\NC(=O)c2nc(ccc2SC)CNC(=O)C[C@@H](/C=C/CCS)OC(=O)[C@H](C)NC1=O [Compound 232]; no activity
C/C=C1\NC(=O)c2ccc(F)c(n2)CNC(=O)C[C@@H](/C=C/CCSC(C)=O)OC(=O)[C@H](C(C)C)NC1=O [Compound 95]; no activity

# ---- query compound ----
// fetch HDAC7 (Homo sapiens) IC50 HDAC7 for C/C=C1\NC(=O)c2nc(ccc2F)CNC(=O)C[C@@H](/C=C/CCSC(C)=O)OC(=O)[C@H](Cc2cccc3ccccc23)NC1=O [Compound 78]
no activity

====

As shown below, each of these compounds has a reported GI50 value.
Test system: HCC827 (human non-small cell lung cancer cells)
Experiment: MTT cancer cell growth inhibition
Assay type: cell-based
Conditions: Homo sapiens, HCC827, 72 h, MTT, 72 hours incubation, HCC827 cells; read-out: GI50 HCC827
State just the number; it will be interpreted in nM.

Reference set (2 entries):
C/C=C1\NC(=O)c2cc(SCC)cc(n2)CNC(=O)C[C@@H](/C=C/CCSC(=O)CCCCCC)OC(=O)[C@H](C(C)C)NC1=O [Compound 251]; 53
C/C=C1\NC(=O)c2cc(SC)cc(n2)CNC(=O)C[C@@H](/C=C/CCSC(C)=O)OC(=O)[C@H](CCCCN)NC1=O [Compound 193]; 18

Field request: GI50 | item: C/C=C1\NC(=O)c2ccc(SC)c(n2)CNC(=O)C[C@@H](/C=C/CCSC(C)=O)OC(=O)[C@H](CCCCNC(=O)OCC2c3ccccc3-c3ccccc32)NC1=O [Compound 197]
71

Query C/C=C1\NC(=O)c2ccc(F)c(n2)CNC(=O)C[C@@H](/C=C/CCSC(C)=O)OC(=O)[C@H](C(C)C)NC1=O [Compound 95] next
83

Query C=C1NC(=O)c2cc(SC)cc(n2)CNC(=O)C[C@@H](/C=C/CCSC(C)=O)OC(=O)[C@H](C)NC1=O [Compound 211] next
55

Query C/C=C1\NC(=O)c2ccc(SC)c(n2)CNC(=O)C[C@@H](/C=C/CCSC(=O)CCCC)OC(=O)[C@H](C(C)C)NC1=O [Compound 158] next
91

====

Molecular target: HDAC2 (Homo sapiens)
Sequence (Q92769 whole entry, species assumed): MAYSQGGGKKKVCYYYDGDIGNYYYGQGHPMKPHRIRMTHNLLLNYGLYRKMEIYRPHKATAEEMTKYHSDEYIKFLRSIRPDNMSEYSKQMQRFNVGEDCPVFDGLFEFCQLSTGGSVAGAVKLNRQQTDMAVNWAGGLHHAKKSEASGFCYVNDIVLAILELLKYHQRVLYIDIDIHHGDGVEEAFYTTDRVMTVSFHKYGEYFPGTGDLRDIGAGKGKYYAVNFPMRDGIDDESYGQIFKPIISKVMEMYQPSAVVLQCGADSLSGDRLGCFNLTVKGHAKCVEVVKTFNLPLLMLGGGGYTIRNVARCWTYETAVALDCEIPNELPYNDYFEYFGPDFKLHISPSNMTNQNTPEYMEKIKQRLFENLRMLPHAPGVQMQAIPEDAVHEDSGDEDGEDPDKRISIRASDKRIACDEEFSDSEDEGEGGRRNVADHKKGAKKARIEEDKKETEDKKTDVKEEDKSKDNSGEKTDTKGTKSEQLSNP
Sorting guide: entries reporting IC50 beneath 40 nM go in the Condition met pile, the rest go in the Condition not met pile.

C/C=C1\NC(=O)c2ccc(F)c(n2)CNC(=O)C[C@@H](/C=C/CCSC=O)OC(=O)[C@H](C(C)C)NC1=O [Example 53]; Condition not met

Does the reported IC50 of C/C=C1\NC(=O)c2cc(F)cc(n2)CCNC(=O)C[C@@H](/C=C/CCSC(C)=O)OC(=O)[C@H](C(C)C)NC1=O [Compound 104] stay below 40 nM?
Condition met

Query C/C=C1\NC(=O)c2cc(F)cc(n2)CNC(=O)C[C@@H](/C=C/CCSC(C)=O)OC(=O)[C@H](Cc2cccc3ccccc23)NC1=O [Example 79] next
Condition met

Query C/C=C1\NC(=O)c2cccc(n2)CNC(=O)C[C@@H](/C=C/CCSC(C)=O)OC(=O)[C@H](Cc2cccc3ccccc23)NC1=O [Compound 17] next
Condition not met

Query C/C=C1\NC(=O)c2cccc(n2)CNC(=O)C[C@@H](/C=C/CCSC(=O)CCCCCCC)OC(=O)[C@H](Cc2cccc3ccccc23)NC1=O [Compound 239] next
Condition not met

Query C/C=C1\NC(=O)c2ccc(SC)c(n2)CNC(=O)C[C@@H](/C=C/CCSC(=O)CCCCCCC)OC(=O)[C@H](Cc2ccccc2)NC1=O [Compound 191] next
Condition met

Query C/C=C1\NC(=O)c2ccc(SC)c(n2)CNC(=O)C[C@@H](/C=C/CCSC(C)=O)OC(=O)[C@H](CC)NC1=O [Compound 179] next
Condition not met

Query C/C=C1\NC(=O)c2cc(C)cc(n2)CNC(=O)C[C@@H](/C=C/CCSC(C)=O)OC(=O)[C@H](Cc2ccccc2)NC1=O [Example 67] next
Condition met

Query C/C=C1\NC(=O)c2ccc(F)c(n2)CNC(=O)C[C@@H](/C=C/CCSC(=O)CCCCCCC)OC(=O)[C@H](Cc2ccccc2)NC1=O [Example 71] next
Condition met

Query C/C=C1\NC(=O)c2cccc(n2)CNC(=O)C[C@@H](/C=C/CCSC=O)OC(=O)[C@H](C(C)C)NC1=O [Compound 8] next
Condition not met

Query C/C=C1\NC(=O)c2cc(F)cc(n2)CNC(=O)C[C@@H](/C=C/CCSC(C)=O)OC(=O)[C@H](C(C)C)NC1=O [Compound 94] next
Condition met

Query C/C=C1\NC(=O)c2nc(ccc2SCCC)CNC(=O)C[C@@H](/C=C/CCSC(=O)CCCCCCC)OC(=O)[C@H](CC)NC1=O [Compound 174] next
Condition met

====

System: A549 (human lung cancer cells)
Experiment: MTT cancer cell growth inhibition
Format: cell-based
Conditions: MTT, 72 hours incubation; read-out: GI50 A54
experimental readout: GI50 (nM)
State just the number; it will be interpreted in nM.

Reference set (3 entries):
C/C=C1\NC(=O)c2nc(ccc2F)CNC(=O)C[C@@H](/C=C/CCSC(C)=O)OC(=O)[C@H](C(C)C)NC1=O [Compound 93]; 60
C/C=C1\NC(=O)c2ccc(F)c(n2)CNC(=O)C[C@@H](/C=C/CCSC(C)=O)OC(=O)[C@H](C(C)C)NC1=O (single isomer, unassigned) [Example 50]; 30
C=C1NC(=O)c2cc(F)cc(n2)CNC(=O)C[C@@H](/C=C/CCS)OC(=O)[C@H](C(C)C)NC1=O [Compound 133]; 50

# ---- query molecule ----
Field request: GI50 | item: C=C1NC(=O)c2cc(F)cc(n2)CNC(=O)C[C@@H](/C=C/CCS)OC(=O)[C@H](C(C)C)NC1=O [Compound 132]
20

====

As shown below, each of these compounds has a reported GI50 value.
Tested on: SGC-7901 (human gastric cancer cells)
Test: MTT cancer cell growth inhibition
Format: cell-based
Conditions: Homo sapiens, SGC-7901, 72 h, MTT, 72 hours incubation, SGC-7901 cells; read-out: GI50 SGC-7901
State just the number; it will be interpreted in nM.

Reference set (5 entries):
C/C=C1\NC(=O)c2cc(F)cc(n2)CNC(=O)C[C@@H](/C=C/CCSC(C)=O)OC(=O)[C@H](CCCCNC(=O)OCC2c3ccccc3-c3ccccc32)NC1=O; 51
CC(=O)SCC/C=C/[C@@H]1CC(=O)NCc2cccc(n2)C(=O)NC(=C(C)C)C(=O)N[C@@H](C(C)C)C(=O)O1; 63
C/C=C1\NC(=O)c2cccc(n2)CNC(=O)C[C@@H](/C=C/CCS)OC(=O)[C@H](Cc2cccc3ccccc23)NC1=O; 51
C/C=C1\NC(=O)c2cc(SC)cc(n2)CNC(=O)C[C@@H](/C=C/CCSC(=O)CCCCCC)OC(=O)[C@H](C(C)C)NC1=O; 36
C/C=C1\NC(=O)c2cc(F)cc(n2)CNC(=O)C[C@@H](/C=C/CCSC(C)=O)OC(=O)[C@H](CC)NC1=O; 51

# ---- query compound ----
// fetch SGC-7901 (human gastric cancer cells) GI50 for C/C=C1\NC(=O)c2ccc(SC)c(n2)CNC(=O)C[C@@H](/C=C/CCS)OC(=O)[C@H](C(C)C)NC1=O
12
